Target: PDE5 (Homo sapiens)
quantity-name: IC50

> print(dat)
                                   compound        tested.system  experimental.value
1  CC1(C)CCC2=C(O1)c1ccccc1C(=O)C2=O [β-Lapachone]  PDE5 (Homo sapiens)             > 10 µM

====

Target: 12-LO (Homo sapiens, UniProt P18054)
Sequence (P18054 whole entry): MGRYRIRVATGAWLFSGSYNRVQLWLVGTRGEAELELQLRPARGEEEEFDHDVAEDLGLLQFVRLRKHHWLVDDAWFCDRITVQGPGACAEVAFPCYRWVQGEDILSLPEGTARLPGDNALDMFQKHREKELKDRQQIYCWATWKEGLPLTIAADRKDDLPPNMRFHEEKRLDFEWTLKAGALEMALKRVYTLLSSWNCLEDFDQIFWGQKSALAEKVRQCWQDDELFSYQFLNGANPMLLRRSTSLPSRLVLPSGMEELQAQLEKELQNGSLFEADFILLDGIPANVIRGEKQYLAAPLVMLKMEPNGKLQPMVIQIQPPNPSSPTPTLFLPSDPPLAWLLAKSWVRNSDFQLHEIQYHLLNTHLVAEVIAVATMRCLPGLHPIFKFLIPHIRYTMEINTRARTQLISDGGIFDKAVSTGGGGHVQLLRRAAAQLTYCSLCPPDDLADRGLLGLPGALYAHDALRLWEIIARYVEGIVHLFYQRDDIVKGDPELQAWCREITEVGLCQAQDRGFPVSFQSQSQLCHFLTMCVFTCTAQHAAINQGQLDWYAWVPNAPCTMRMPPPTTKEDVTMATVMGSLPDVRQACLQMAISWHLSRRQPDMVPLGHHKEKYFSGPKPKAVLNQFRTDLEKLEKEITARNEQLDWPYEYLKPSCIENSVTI
Assay: 12-LO inhibition in intact human neutrophils
pIC50: −log10 of the molar value.
quantity-name: pIC50

> print(dat)
                                   compound  experimental.value
1  CC1(C)CCC2=C(O1)c1ccccc1C(=O)C2=O [β-Lapachone]              < 4.52

====

Tested on: HL-60 cells
Assay: HL-60 cell viability assay (Alamar Blue, 48 hours)
Settings: Homo sapiens, HL-60, 48 h, read-out: IC50 (control)
quantity-name: IC50 (nM)

> print(dat)
           compound.structure.string  experimental.value
1  CC1(C)CCC2=C(O1)c1ccccc1C(=O)C2=O                 390

====

Target: EP3 (Homo sapiens, UniProt P43115)
Sequence (P43115 whole entry): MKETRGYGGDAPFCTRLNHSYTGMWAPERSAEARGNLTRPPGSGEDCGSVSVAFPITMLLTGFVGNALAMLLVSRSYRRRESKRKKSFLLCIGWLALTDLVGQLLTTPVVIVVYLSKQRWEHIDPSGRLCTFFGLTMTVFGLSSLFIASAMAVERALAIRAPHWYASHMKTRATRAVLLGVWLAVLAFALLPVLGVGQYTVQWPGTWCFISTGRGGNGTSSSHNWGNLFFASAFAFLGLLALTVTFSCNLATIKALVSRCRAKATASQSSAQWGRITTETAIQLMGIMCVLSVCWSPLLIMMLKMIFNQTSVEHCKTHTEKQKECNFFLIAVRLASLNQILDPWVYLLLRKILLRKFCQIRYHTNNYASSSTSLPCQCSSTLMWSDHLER
Assay: EP3 functional antagonist assay, Cerep (sulprostone 0.1 nM, impedance)
Details: IC50, EP3 concentration–inhibition curve; n = 2
pIC50: −log10 of the molar value.
quantity-name: pIC50

> print(dat)
           compound.structure.string  quantity.name  experimental.value
1  CC1(C)CCC2=C(O1)c1ccccc1C(=O)C2=O          pIC50                4.20

====

Biological target: EP3 (Homo sapiens, UniProt P43115)
Experiment: EP3 functional antagonist assay, Cerep (sulprostone 0.1 nM, impedance)
Conditions: Experimental –log(IC50 or KD), EP3
quantity-name: IC50 (µM)

> print(dat)
           compound.structure.string  quantity.name  experimental.value
1  CC1(C)CCC2=C(O1)c1ccccc1C(=O)C2=O           IC50                  20

====

Molecular target: TRPM8 (Homo sapiens)
Construct: Cerep, SA (fee-for-service assay) printed G018533 (citation number 33 glued on)
Sequence (Q7Z2W7 whole entry): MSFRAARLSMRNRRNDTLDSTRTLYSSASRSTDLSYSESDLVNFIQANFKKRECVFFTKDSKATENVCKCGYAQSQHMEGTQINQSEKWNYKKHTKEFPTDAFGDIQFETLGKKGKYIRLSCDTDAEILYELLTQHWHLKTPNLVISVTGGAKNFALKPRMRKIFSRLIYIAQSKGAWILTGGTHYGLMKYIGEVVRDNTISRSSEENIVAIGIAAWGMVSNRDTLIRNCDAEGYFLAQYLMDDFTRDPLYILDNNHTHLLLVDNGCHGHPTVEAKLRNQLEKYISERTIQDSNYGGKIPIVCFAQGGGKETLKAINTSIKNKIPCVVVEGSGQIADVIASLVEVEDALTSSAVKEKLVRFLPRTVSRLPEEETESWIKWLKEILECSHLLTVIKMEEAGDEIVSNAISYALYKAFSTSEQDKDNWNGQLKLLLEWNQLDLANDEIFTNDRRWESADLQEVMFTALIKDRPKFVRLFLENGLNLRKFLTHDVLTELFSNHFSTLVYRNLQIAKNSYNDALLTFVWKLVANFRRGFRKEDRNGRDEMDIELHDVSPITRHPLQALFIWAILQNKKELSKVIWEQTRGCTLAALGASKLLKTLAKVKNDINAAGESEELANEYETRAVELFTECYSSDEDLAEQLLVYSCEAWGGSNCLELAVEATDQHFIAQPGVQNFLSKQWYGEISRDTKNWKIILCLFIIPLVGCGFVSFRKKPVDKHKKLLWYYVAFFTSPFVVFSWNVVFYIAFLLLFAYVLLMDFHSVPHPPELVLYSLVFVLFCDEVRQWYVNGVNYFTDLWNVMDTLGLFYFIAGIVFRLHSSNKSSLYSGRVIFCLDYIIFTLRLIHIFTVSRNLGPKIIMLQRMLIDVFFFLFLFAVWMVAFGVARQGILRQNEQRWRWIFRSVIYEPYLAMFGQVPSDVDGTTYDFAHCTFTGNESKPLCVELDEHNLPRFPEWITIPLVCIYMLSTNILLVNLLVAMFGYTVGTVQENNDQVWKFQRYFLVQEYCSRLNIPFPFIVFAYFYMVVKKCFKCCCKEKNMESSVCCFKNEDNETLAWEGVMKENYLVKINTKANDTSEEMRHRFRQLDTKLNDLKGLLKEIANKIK
Test: TRPM8 functional antagonist assay, Cerep (icilin 100 nM)
quantity-name: IC50

> print(dat)
           compound.structure.string  experimental.value
1  CC1(C)CCC2=C(O1)c1ccccc1C(=O)C2=O            > 100 µM

====

Biological target: EP1 (Homo sapiens)
Sequence (P34995 1-402): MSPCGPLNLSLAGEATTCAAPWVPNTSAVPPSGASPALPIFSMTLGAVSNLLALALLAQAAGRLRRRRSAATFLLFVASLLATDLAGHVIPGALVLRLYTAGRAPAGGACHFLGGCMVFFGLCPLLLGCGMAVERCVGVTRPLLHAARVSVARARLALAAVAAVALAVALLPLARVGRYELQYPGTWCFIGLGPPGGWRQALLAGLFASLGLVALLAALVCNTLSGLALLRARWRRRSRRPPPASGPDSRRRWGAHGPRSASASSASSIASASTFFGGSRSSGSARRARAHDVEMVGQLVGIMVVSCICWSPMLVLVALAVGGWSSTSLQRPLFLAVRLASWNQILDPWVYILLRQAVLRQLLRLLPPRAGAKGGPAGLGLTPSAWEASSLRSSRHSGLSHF
Experiment: EP1 functional antagonist assay, Cerep (PGE2 3 nM, intracellular Ca2+)
quantity-name: IC50

> print(dat)
                                   molecule  quantity.name  experimental.value
1  CC1(C)CCC2=C(O1)c1ccccc1C(=O)C2=O [β-Lapachone]           IC50            > 100 µM

// provenance: paper PMC6138237
